Where do these numbers come from? They come from the DeepSol protein solubility set.

assay: soluble on expression in E. coli; label from the status in PepcDB or PDB records
reported.property: soluble on expression in E. coli

These solved cases illustrate the format of a correct answer.
INSERT INTO measurements (biopolymer_sequence, reported_property, measurement) VALUES
  ('MGSDKIHHHHHHMKLAKKYYAVRKGRVPGIYKTWKEAEEQVKGFPGAEYKSFERLEDAKAYMEGKNECICPELDTETMIAYVDGSYDEVCGSGIVLCYRGKKEEYYFWTNIEEFKDSRNITGEIMAALFAMDYALKKGARKLVLRYDLEGLEKWATEEYRTNKLVTKVYRHYYRKFCQMGLKVVFEKIKSHSGNFCNDEADSLAKKASKKESNVEWMPEDFESIIRTLTKKGGCL', 'soluble on expression in E. coli', 'not soluble'),
  ('MGSDKIHHHHHHMETDMPADMIQPLCEIDDLRIGFHGHDGALTEAVRGLSLTLHRGERLGIVGESGSGKSLTGRALLGLLPPAAQYRAKAMTFDGQDLLSMSARKRRQLCGQQMGMILQDPKYSLNPVMTVAQQMREVFDLHGPKLGRREMREQIIAALAAVHIRNPERVADAYPHELSGGMGQRVMIAMMVSSGPRLLVADEPTSALDVLVSMQVLGILDEMIEKHHTGLIFISHDLPLVMSFCDRVVVMFAGRVVETCAARDLVHARHPYTRGLLAASPPLIDPPDQLPVLKPDPAWLTQPAGASA', 'soluble on expression in E. coli', 'not soluble'),
  ('MAQQAPDREKALELAMAQIDKNFGKGSVMRLGEEVRQPISVIPTGSISLDVALGIGGLPRGRVIEIYGPESSGKTTVALHAVANAQAAGGIAAFIDAEHALDPEYAKKLGVDTDSLLVSQPDTGEQALEIADMLVRSGALDIIVIDSVAALVPRAEIEGEMGDSHVGLQARLMSQALRKMTGALNNSGTTAIFINALREKIGVMFGSPETTTGGKALKFYASVRLDVRRIETLKDGTDAVGNRTRVKVVKNKVSPPFKQAEFDILYGQGISREGSLIDMGVEHGFIRKSGSWFTYEGEQLGQGKENARKFLLENTDVANEIEKKIKEKLGIGAVVTAEADDVLPAPVDF', 'soluble on expression in E. coli', 'soluble'),
  ('GSGEAKPQAPELRIFPKKMDAELGQKVDLVCEVLGSVSQGCSWLFQNSSSKLPQPTFVVYMASSHNKITWDEKLNSSKLFSAMRDTNNKYVLTLNKFSKENEGYYFCSVISNSVMYFSSVVPVLQKVNSTTTKPVLRTPSPVHPTGTSQPQRPEDCRPRGSVKGTG', 'soluble on expression in E. coli', 'soluble'),
  ('MGSDKIHHHHHHMSIRGKAFIVGAYEHPGRNLPDHSVQQIHAECAMGALSDAGLSIKDVDGYFSNGQLGFGGISMAEYLGLRLSYIDSTFTGGSSYMAHVGHAAAAIAAGKCKVALITQGAKVRGVIRGAKHTADTPEFPFETVYGETNAAIYALAARRHMHEYGTTAEQLAAVKVAAAAYAQHNPNALLRKLVSIDDVMNSPIIADPLHRLDCCVVTDGGGALVLVAPEIARSLKRQSVKLLGHAEAIRHGGDGPSDFASTAAALSGPRAFTEAGVSPRDVRYASIYDSFTITVIMTLEDLGFCGKGEGGAFVASGALGLDGLLPINTDGGGLCNNHPGYQGGMVRTIEAVRQLRGEANPNTQVKNCTIALAHGTGGGMSRHASVTLVLGQEDA', 'soluble on expression in E. coli', 'not soluble');

In the following, a different sequence is considered.
q: Return value of soluble on expression in E. coli for input MSLDYEIFNPYEGLIFDMDGTLIDTMPVHAQAWTMVGKKFGYEFDFQIMYNFGGATVRTIAGEMMKAANMPLDRIEDVLAAKRELSYQLIPTQSKLLPTFEIVKSFHQKKPIALGSGSHRKIIDMLMDKLAIAPYFNAIVSADDVKEHKPHPETFLRCAELIQANPSRCIVFEDADLGVQAGLSAGMDVFDVRTREIISPREGHHHHHH , no commentary.
a: soluble
